Tested on: MS2 coat protein
procedure_details: apparent Kd, MS2 coat protein; higher = weaker binding; RNA-MaP array; FMN 200 µM where present
applied_conditions: designed as: OFF switch for flavin mononucleotide; no ligand
Assign y whenever apparent Kd does not fall below 30 nM; assign n whenever it does.

>  <item_sequence>
AAAUAACCUAGCAAAAUUUCCUCACAUGAGGAUCACCCAUGUAGAAGGUUAACCUAAUAUAGGAUAAAGGAUAUACGUGCUAGG

>  <assayed_system>
MS2 coat protein

>  <group>
n

$$$$
>  <item_sequence>
GGCAGACAUGAGGAUCACCCAUGUCAGGAUAUGUGGCGAUCGUCGAUAGACGAUAGCCACAGAAGGGACAUGCC

>  <assayed_system>
MS2 coat protein

>  <group>
n

$$$$
>  <item_sequence>
GACGCUAAAGGAUAUACAUGAGGAUCACCCAUGUUGAGGAAGGUUAGAUGAGGAGUAAGUAGAAGGUUAGGCGA

>  <assayed_system>
MS2 coat protein

>  <group>
y

$$$$
>  <item_sequence>
AAUAUAGAGCUGGUCUCAUAAUAAACAUGAGGAUCACCCAUGUAGGAUAUCAGCACGAUAAGUGCUGAGAAGGACAUCCAGCUC

>  <assayed_system>
MS2 coat protein

>  <group>
n

$$$$
>  <item_sequence>
UUAUACAUGAGGAUCUCCCAUGACAUGAGGAUCACCCAUGUGCAGGAUAUACGUGUUAUAAUAUAGUAGAAGGGCAGACUAUAU

>  <assayed_system>
MS2 coat protein

>  <group>
y

$$$$
>  <item_sequence>
GGAUGUCAAAGACAUCCAAAUCGAACAUGAGGAUCACCCAUGUAGGAUAUGCUACUCAAAGAGUAGCAGAAGGACAUGUGCUUU

>  <assayed_system>
MS2 coat protein

>  <group>
y

$$$$
>  <item_sequence>
ACUUAUUGAGGAUAUACAGAAAAUUACAUGAGGAUCACCCAUGUUCUUCAAUGUAUAUAUGUAGAAGGCAGAAUAG

>  <assayed_system>
MS2 coat protein

>  <group>
n

$$$$
>  <item_sequence>
AAGUGCUAAGGAUAUAUAUGGAUAUACAUUUAUGUAGAACUACAUGAGGAUCACCCAUGUAGAAGGUAGCAAUA

>  <assayed_system>
MS2 coat protein

>  <group>
n

$$$$
>  <item_sequence>
UUAAUUAACAAGAAGGCUUACAUGAGGAUCACCCAUGUUGUACAUGGAUAAAGAGGAUAUUGCUAAUAAUUAUUUAUCUUAAUU

>  <assayed_system>
MS2 coat protein

>  <group>
y

$$$$
>  <item_sequence>
AAAACGGUAGGAUAUACAUGAGGAUCACCCAUGUUAAAUUUAAAAAUAAAAUUAAAAUGUAGAAGGACCAAAAA

>  <assayed_system>
MS2 coat protein

>  <group>
y

$$$$
>  <item_sequence>
UAGAAGUCAGGAUAUCCAUGGCGGCACUUGCGUGGUGGCGUGGAGAAGGGACAUGAGGAUCACCCAUGUAAAGA

>  <assayed_system>
MS2 coat protein

>  <group>
y

$$$$
>  <item_sequence>
CGUGACUCAGGAUAUCUAUAGUAUCACAUGAGGAUCACCCAUGUCCAGCGAAAGCUGGAGGGAGAAGGGAGUCACG

>  <assayed_system>
MS2 coat protein

>  <group>
y

$$$$
>  <item_sequence>
CAUGUGAGCGAGGAUAUUUUACGGGAAACUUUCAGAGAAGGCGCUACAUGAGGAUCACCCAUGUCCGUCAGUCC

>  <assayed_system>
MS2 coat protein

>  <group>
y

$$$$
>  <item_sequence>
GCUAGUGCUGUGAGGAUAUGUGAUCGGAAAUGAUCGUAGAAGGCACAUGAGGAUCACCCAUGUAAGGUGCUAGU

>  <assayed_system>
MS2 coat protein

>  <group>
y

$$$$
>  <item_sequence>
UCAUACGAUGAGGAUAUCUCCGUUAAAGUAUGUAGAGAAGGCGUUACAUGAGGAUCACCCAUGUUUGUGGGCAG

>  <assayed_system>
MS2 coat protein

>  <group>
y

$$$$
>  <item_sequence>
AAAUAAACUAGCAAAAUUUCCUCACAUGAGGAUCACCCAUGUAAGGAUAUCUGUCCUAAAAGGACAGAGAAGGUACGUGCUAGG

>  <assayed_system>
MS2 coat protein

>  <group>
n

$$$$
>  <item_sequence>
CUUAUGCGGCAGGAUAUCGUGCUUUUCGAGCAGCGAGAAGGGUCUACAUGAGGAUCACCCAUGUCAGUGGCUCU

>  <assayed_system>
MS2 coat protein

>  <group>
n

$$$$
>  <item_sequence>
UUUGUUUUGCAAGGAUAUGUUUAAUUUUAUUUUCCUUACACAUGAGGAUCACCCAUGUUAUUCUUACAGAAGGUGCGUAAUUUG

>  <assayed_system>
MS2 coat protein

>  <group>
y

$$$$
>  <item_sequence>
AGUCAUACAGGAUAUACAUGAGGAUCACCCAUGUAAAUCCUAAAUGGGUGAUCCUCAUGUAGAAGGGUAUGACA

>  <assayed_system>
MS2 coat protein

>  <group>
n

$$$$
>  <item_sequence>
AAACCUAUAGGAUAUACAUGAGGAUCACCCAUGUUGCGAUUUUUUAGGUAACAGAUCCGUAGAAGGGUAGGUUA

>  <assayed_system>
MS2 coat protein

>  <group>
n

$$$$
>  <item_sequence>
CGUCCACAUGAGGAUCACCCAUGUGAGGAUAUCGAUGUCCCAGGGCGGGUGCGGGACUCGAGAAGGCGCUAGGU

>  <assayed_system>
MS2 coat protein

>  <group>
n

$$$$
>  <item_sequence>
UGGGCGAGCCCAGUACUCACACAUGAGGAUCACCCAUGUGACGAGGAUAUAGACAGCGAUGCGUACUAGAAGGCGUCACGGUAA

>  <assayed_system>
MS2 coat protein

>  <group>
n

$$$$
>  <item_sequence>
GGUGGACAUGAGGAUCACCCAUGUGAGGAUAUCGGCUGGUGCGUGGUGGCUGGCAUCUCGAGAAGGCACAUAGU

>  <assayed_system>
MS2 coat protein

>  <group>
y

$$$$
>  <item_sequence>
AGUGUAUCCCUAGGAUAUGCACAUGAGGAUCACCCAUGUAAACCCGCGCAGGCUCUUCUCAUGUCGCAGAAGGAGGGACCCGGA

>  <assayed_system>
MS2 coat protein

>  <group>
y

$$$$
>  <item_sequence>
UCUACAUAAAUUCAUCAAUACAGAAAGGAUAUGAGAUACAUGAGGAUCACCCAUGUGCAUGUGAAUUAGAAGGUUCAAUUAACU

>  <assayed_system>
MS2 coat protein

>  <group>
n

$$$$
>  <item_sequence>
CAGAAGUCAGGAUAUGCUGCUCGUCACUUGCGUGAUGAGUAGCAGAAGGGACAUGAGGAUCACCCAUGUAAAGA

>  <assayed_system>
MS2 coat protein

>  <group>
y

$$$$
>  <item_sequence>
CCACGACAUGAGGAUCACCCAUGUCAGGAUAUCCCUCAUUGUAUGAAAAUACAAUGAGGGAGAAGGGACGUGAC

>  <assayed_system>
MS2 coat protein

>  <group>
y

$$$$
>  <item_sequence>
AGCAUGCUAGGAUAUACGGGACAUUAGGGUUUGUCGUGUGGACAUGAGGAUCACCCAUGUAGAAGGAGCGUGCA

>  <assayed_system>
MS2 coat protein

>  <group>
y

$$$$
>  <item_sequence>
CAGGUAGACUGAGGAUAUACAUGACUUAGUCUAUCUAGGUCAUAAACCACAUGAGGAUCACCCAUGUAGAAGGCAGUCUGCCUG

>  <assayed_system>
MS2 coat protein

>  <group>
n

$$$$
>  <item_sequence>
CUGGUGUCAGGAUAUGCAUAGCAGUGACCGGAACCCGGUCAGCAGAAGGGACAUGAGGAUCACCCAUGUUAAUA

>  <assayed_system>
MS2 coat protein

>  <group>
n

$$$$
